TESTED_SYSTEM: Beta-secretase 1 (Homo sapiens)
Sequence (P56817 whole entry): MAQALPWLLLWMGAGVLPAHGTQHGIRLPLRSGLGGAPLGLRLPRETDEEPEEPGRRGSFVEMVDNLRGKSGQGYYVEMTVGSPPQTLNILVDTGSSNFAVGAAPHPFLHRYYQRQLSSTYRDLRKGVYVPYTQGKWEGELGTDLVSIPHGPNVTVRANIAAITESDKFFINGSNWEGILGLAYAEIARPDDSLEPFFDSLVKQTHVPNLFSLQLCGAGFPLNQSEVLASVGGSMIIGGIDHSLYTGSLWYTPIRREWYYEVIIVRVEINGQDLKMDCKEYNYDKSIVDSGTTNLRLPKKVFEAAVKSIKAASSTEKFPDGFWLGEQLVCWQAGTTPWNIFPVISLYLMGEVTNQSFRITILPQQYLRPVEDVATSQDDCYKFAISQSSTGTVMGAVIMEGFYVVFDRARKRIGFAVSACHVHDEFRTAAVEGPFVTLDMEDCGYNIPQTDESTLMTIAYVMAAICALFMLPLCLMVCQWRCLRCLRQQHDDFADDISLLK
ASSAY: Inhibition of recombinant BACE1 expressed in baculovirus system using panvera peptide as substrate after 60 mins by spectrofluorometric analysis
MEASUREMENT_TYPE: pIC50
Lab note — pIC50 values are minus log10 of concentrations in M.

[ask] State its pIC50: CCN(CCCCCCNC1=CC(=O)c2ccccc2C1=O)Cc1ccccc1OC
[reply] 5.55

* * *

IC50 overview
TESTED_SYSTEM: Cholinesterase (Homo sapiens, UniProt P06276)
Sequence (P06276 whole entry): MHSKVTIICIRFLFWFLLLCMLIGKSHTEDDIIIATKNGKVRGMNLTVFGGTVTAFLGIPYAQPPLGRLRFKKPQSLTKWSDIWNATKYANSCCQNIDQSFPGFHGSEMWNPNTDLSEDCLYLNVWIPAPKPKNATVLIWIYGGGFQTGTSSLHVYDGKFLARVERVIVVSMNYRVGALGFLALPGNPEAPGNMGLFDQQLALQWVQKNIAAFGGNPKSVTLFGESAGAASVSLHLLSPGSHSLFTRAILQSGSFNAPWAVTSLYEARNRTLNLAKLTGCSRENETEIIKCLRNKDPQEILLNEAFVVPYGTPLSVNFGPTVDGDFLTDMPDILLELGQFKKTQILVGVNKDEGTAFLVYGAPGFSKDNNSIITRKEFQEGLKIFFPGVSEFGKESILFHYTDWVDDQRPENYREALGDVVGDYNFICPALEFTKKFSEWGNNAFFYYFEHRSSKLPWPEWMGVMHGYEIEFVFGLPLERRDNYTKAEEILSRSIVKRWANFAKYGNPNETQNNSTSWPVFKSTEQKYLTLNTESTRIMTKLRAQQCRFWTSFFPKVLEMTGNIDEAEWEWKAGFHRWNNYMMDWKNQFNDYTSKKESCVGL
ASSAY: Inhibition of human recombinant BuChE using butyrylthiocholine iodide as substrate after 20 mins preincubation by Ellman method

CCN(CCCCCCNC1=CC(=O)C(C)=C(C)C1=O)Cc1ccccc1OC 0.314 µM
COc1ccccc1CNCCCCCCNC1=CC(=O)c2ccccc2C1=O 3.32 µM
NCCCCCCNC1=CC(=O)c2ccccc2C1=O 294 µM
CCN(CCCCCCNC1=CC(=O)c2ncccc2C1=O)Cc1ccccc1OC 2.56 µM

[ask] Consider the molecule CCN(CCCCCCNC1=CC(=O)C(NCCCCCCN(CC)Cc2ccccc2OC)=CC1=O)Cc1ccccc1OC . State its measured IC50.
[reply] 0.144 µM

[ask] Report IC50 for CCN(CCCCCCNC1=CC(=O)C(OC)=CC1=O)Cc1ccccc1OC
[reply] 22.8 µM

[ask] Provide one value: measured IC50 of COC1=CC(=O)C(N2CCC(C3CCN(Cc4ccccc4OC)CC3)CC2)=CC1=O
[reply] 3.58 µM

[ask] Supply measured IC50 of CCN(CCCCCCNC1=CC(=O)c2ccccc2C1=O)Cc1ccccc1OC in your reply.
[reply] 1.49 µM

[ask] Indicate the recorded IC50 value for this molecule: COc1ccccc1CN1CCC(N2CCC(NC3=CC(=O)c4ccccc4C3=O)CC2)CC1
[reply] 3.16 µM

Data origin, for the record: ChEMBL document CHEMBL1938257
